Assay conditions: 295.15 K; 101.33 kPa; Liquid; Vibrating tube method
Note to self: values exactly at 1000 kg/m3 are Y. So mass density at or above 1000 kg/m3 is Y, below is N.

> print(dat)
                                   compound  class.label
1  CCCCCCn1cc[n+](C)c1.O=[N+]([O-])c1cn[n-]c1 [1-hexyl-3-methylimidazolium 4-nitropyrazolide]            Y
2  CCCCCCCCCCCCCC[P+](CCCCCC)(CCCCCC)CCCCCC.Clc1nc[n-]c1Cl [trihexyl(tetradecyl)phosphonium 4,5-dichloroimidazolide]            N
3  CCC=Cn1cc[n+](C)c1C.O=[N+]([O-])c1cn[n-]c1 [1-but-1-enyl-2,3-dimethylimidazolium 4-nitropyrazolide]            Y
4  CCCC[S+]1CCCC1.O=S(=O)([N-]S(=O)(=O)C(F)(F)F)C(F)(F)F            Y
5  CCCCCCCCCCCCCC[P+](CCCCCC)(CCCCCC)CCCCCC.N#Cc1nc[n-]c1C#N [trihexyl(tetradecyl)phosphonium 4,5-dicyanoimidazolide]            N
